Origin of the recorded values: PubChem BioAssay (NCI)

Test system: NCI-H522 lung
Test: NCI-60 one-dose screen, 48 h (100 = growth as untreated, 0 = no growth, -100 = all killed)
Details: 10 µM unless noted
This is part of a sample that, as a whole, favours compounds with a hit. Of some 83,000 tested, about 20% had one in any assay.
Please go through the items and note down their growth.
Answer in %, number only, no unit symbol.

The compound `C/C(=C(/c1ccc(O)cc1)c1ccc(OCCN2CCCC2)cc1)c1ccc(Cl)cc1` on NCI-H522 lung: growth was 61.1

The compound `C#CCOc1ccc(/C=N/Nc2nc(-c3cc4cc(Br)cc(Br)c4oc3=O)cs2)cc1` on NCI-H522 lung: growth was 95

The compound `O=C(c1ccc(O)cc1)[C@@H]1[C@@H]2CCCN2[C@@]2(C(=O)N(C(=O)c3ccc(F)cc3)c3ccccc32)[C@H]1c1ccc(F)cc1` on NCI-H522 lung: growth was 93.7

The compound `COc1cc(/C=C/C(=O)c2ccc(N3CCN(C)CC3)cc2)ccc1F` on NCI-H522 lung: growth was 97.2

The compound `C/C(=C(/c1ccc(O)cc1)c1ccc(OCCN(C)C)cc1)c1ccc(Cl)cc1` on NCI-H522 lung: growth was 57.8
